This collection of values is drawn from ChEMBL document CHEMBL3596131.

- procedure text: Half life in human hepatocytes
- Assay type: ADME, cell-based, Hepatocyte
parameter measured: half-life

1. C[C@@H](OC(=O)N1CCC(O[C@H]2CC[C@H](Oc3cnc(S(C)(=O)=O)cn3)CC2)CC1)C(F)(F)F
> 2 h

----------
# reported Emax; entries follow
- system under test: Glucose-dependent insulinotropic receptor (Rattus norvegicus) (UniProt Q7TQN8)
- Sequence (Q7TQN8 whole entry): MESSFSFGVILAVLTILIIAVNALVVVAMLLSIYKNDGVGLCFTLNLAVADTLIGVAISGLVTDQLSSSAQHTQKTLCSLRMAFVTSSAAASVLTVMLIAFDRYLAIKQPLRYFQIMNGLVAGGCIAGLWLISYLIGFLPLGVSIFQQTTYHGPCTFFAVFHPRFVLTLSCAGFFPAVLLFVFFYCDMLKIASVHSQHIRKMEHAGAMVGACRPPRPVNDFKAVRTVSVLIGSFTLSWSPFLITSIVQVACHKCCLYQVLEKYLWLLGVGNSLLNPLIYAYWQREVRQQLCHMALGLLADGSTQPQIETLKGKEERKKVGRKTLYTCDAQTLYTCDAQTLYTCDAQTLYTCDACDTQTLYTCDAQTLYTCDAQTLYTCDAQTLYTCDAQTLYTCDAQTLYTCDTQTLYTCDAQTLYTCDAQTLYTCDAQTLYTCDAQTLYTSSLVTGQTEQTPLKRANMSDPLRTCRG
- procedure text: Agonist activity at rat GPR119 by HTRF cAMP assay relative to AR231453
- Format: functional
parameter measured: Emax (%)

1) CC(C)(C)OC(=O)N1CCC(O[C@H]2CC[C@@H](Oc3ccc(S(C)(=O)=O)cc3)CC2)CC1
121
2) CC(C)OC(=O)N1CCC(O[C@H]2CC[C@H](Oc3ccc(S(C)(=O)=O)nc3)CC2)CC1
125
3) CCC(F)(F)C(=O)N1CCC(O[C@H]2CC[C@H](Oc3cnc(S(C)(=O)=O)cn3)CC2)CC1
126
4) Cc1nc(O[C@H]2CC[C@H](OC3CCN(C(=O)OC(C)(C)C)CC3)CC2)ccc1C(=O)N(C)C
111
5) CS(=O)(=O)c1cnc(O[C@H]2CC[C@H](OC3CCN(C(=O)OC4CCOC4)CC3)CC2)cn1 (stereo partly drawn)
109
6) CS(=O)(=O)c1cnc(O[C@H]2CC[C@H](OC3CCN(CC4(C(F)(F)F)CC4)CC3)CC2)cn1
124
7) CC(C)(C)OC(=O)N1CCC(O[C@H]2CC[C@H](Oc3ccc(S(C)(=O)=O)nn3)CC2)CC1
86
8) C[C@@H](OC(=O)N1CCC(O[C@H]2CC[C@H](Oc3cnc(S(C)(=O)=O)cn3)CC2)CC1)C(F)(F)F
120
